Recorded growth for the following compounds
- Test system: SF-268 CNS
- Assay name: NCI-60 one-dose screen, 48 h (100 = growth as untreated, 0 = no growth, -100 = all killed)
- Conditions: 10 µM unless noted
- Procedure: Cells are grown in 96 well plates and exposed to the test compound for 48 hours. Compounds are tested at a single concentration, which is 10^-5 M for most compounds. The reported endpoint is percent growth (GI% or GIPRCNT), where numbers from 0 - 100% represent growth inhibition, and numbers from -100% - 0 represent cell death. For example, a value of 40 represents 60% growth inhibition. A value of 0 means no net growth occurred over the course of the experiment. […]
The panel holds about 83,000 compounds, 20% with a hit somewhere; the sample as a whole holds those more often.
Your answer is read as %, so omit the unit and give the number.

Below, each entry is followed by its recorded growth result.
| Compound | Observable | Unit info | Assay value |
| --- | --- | --- | --- |
| COc1ccc(/C=C(/C(=O)N2CCCC2)c2cc(OC)c(OC)c(OC)c2)cc1N | growth | % | 47.5 |
| Cc1cc(N(CCCl)CCCl)ccc1C=Nc1ccc2ccccc2c1 | growth | % | 72.3 |
| COC[CH2][Hg][C]#[C][Hg][CH2]COC | growth | % | 93.7 |
| CC(=O)[O][Hg][c]1nc2c(c(=O)n(C)c(=O)n2C)n1C | growth | % | 110 |
| CC(C)(NC(=O)c1nn(CCCCCF)c2ccccc12)c1ccccc1 | growth | % | 96 |

Q: I'd like to know its growth. The compound in question is C[C@@H]1O[C@@H](O[C@H]2CC[C@@]3(C)[C@H](CCC4[C@@H]3C(O)C[C@]3(C)[C@@H](c5ccc(=O)oc5)CC[C@]43O)C2)[C@H](O)[C@H](O)[C@H]1O (stereo partly drawn)
A: -63.1

Q: Entry CC(=O)O[C@H]1CCC2(C)C(=CCC3C2CCC2(C)/C(=N/OC(=O)c4ccc(N(CCCl)CCCl)cc4)CCC32)C1 (stereo partly drawn) : reported growth = ?
A: 5.4

Q: Requested field: growth. Item: C[C@]12CCC(=O)CC1CC[C@@H]1C2CC[C@@]2(C)C1CC[C@@H]2OC(=O)CC[Se][Se]CCC(=O)O[C@H]1CCC2[C@@H]3CCC4CC(=O)CC[C@]4(C)C3CC[C@@]21C (stereo partly drawn)
A: 94.1
